Listed sequences paired with reported target mRNA inhibition
- assay.system: DGAT2
- recorded.conditions: ASO, HepG2, 10 µM
After the bases stand the sugars from the 5' end (letter, count) and the backbone: PS all phosphorothioate, else s phosphorothioate and o phosphodiester by linkage. Methylation of C is not given here. e = 2'-O-(2-methoxyethyl) (MOE); d = 2'-deoxy (DNA)
Write your answer as a measured quantity: the number, then the unit.

Sample records with target mRNA inhibition:
>>> experimental_result("CACAGTTAAAGTGTGGTACA (sugars e5 d10 e5, PS)")
"88%"
>>> experimental_result("GGACCCACTGGAGCACTGAG (sugars e5 d10 e5, PS)")
"47%"
>>> experimental_result("ATCCTGCCAGAGTTATCCTC (sugars e5 d10 e5, PS)")
"77%"
>>> experimental_result("TGAGGCCAAGGACAGAGGTT (sugars e5 d10 e5, PS)")
"85%"
>>> experimental_result("GCAGTCTGCCTGATTCCCTT (sugars e5 d10 e5, PS)")
"93%"
>>> experimental_result("GTCCTCCTTAGCTTTAATCC (sugars e5 d10 e5, PS)")
"85%"
>>> experimental_result("GGGTTCTTGTCCTGGTCCCA (sugars e5 d10 e5, PS)")
"90%"
>>> experimental_result("CACTCTGTGATGCTCTGGAG (sugars e5 d10 e5, PS)")
"84%"
>>> experimental_result("GGGACTCAGTGTCCTCCTTA (sugars e5 d10 e5, PS)")
"78%"
>>> experimental_result("ATCCATGTCAGAGAGGCTCA (sugars e5 d10 e5, PS)")
"88%"

Given the sequence TGCCACTCCCATTCTTTGAA (sugars e5 d10 e5, PS) and test system DGAT2, the measured target mRNA inhibition is 62%

Given the sequence GTCACTGACTCACAACAGCA (sugars e5 d10 e5, PS) and test system DGAT2, the measured target mRNA inhibition is 92%

Given the sequence CACCTGTTACTACATGTCTA (sugars e5 d10 e5, PS) and test system DGAT2, the measured target mRNA inhibition is 93%

###

- assay.system: MALAT1
- recorded.conditions: ASO, A431, 0.005 µM
After the bases stand the sugars from the 5' end (letter, count) and the backbone: PS all phosphorothioate, else s phosphorothioate and o phosphodiester by linkage. Methylation of C is not given here. k = constrained ethyl (cEt); d = 2'-deoxy (DNA)
metric: target mRNA inhibition (%)
// units = %; emit number, no label

>>> experimental_result("GTGTTCGCAGACAAAG (sugars k3 d10 k3, PS)")
10
>>> experimental_result("AGAGATACCTGTCTGA (sugars k3 d10 k3, PS)")
22
>>> experimental_result("TAGACCAACTAAGCGA (sugars k3 d10 k3, PS)")
-9

Entry CCTGAAGTCAAGACAA (sugars k3 d10 k3, PS) , target mRNA inhibition reported as 0

###

Listed sequences paired with reported target mRNA inhibition
- assay.system: IRF5
- recorded.conditions: ASO, KARPAS-229, 4 µM
After the bases stand the sugars from the 5' end (letter, count) and the backbone: PS all phosphorothioate, else s phosphorothioate and o phosphodiester by linkage. Methylation of C is not given here. e = 2'-O-(2-methoxyethyl) (MOE); k = constrained ethyl (cEt); d = 2'-deoxy (DNA)
// units = %; emit number, no label

>>> experimental_result("CCAATGCAACATCCAT (sugars kkddddddddkekekk, PS)")
0

Entry CTGTCACATCTCCACA (sugars kkdddddddddkekek, PS) , target mRNA inhibition reported as 23

Entry CTTGGTCTTGACCTCC (sugars kdddddddddkekeke, PS) , target mRNA inhibition reported as 0

Entry CATTCCATATACACAC (sugars k2 d9 e3 k2, PS) , target mRNA inhibition reported as 21

Entry GGTCTTGACCTCCCGC (sugars k3 d9 k3 e1, PS) , target mRNA inhibition reported as 22

###

- assay.system: KRAS
- recorded.conditions: ASO, A431, 2 µM
After the bases stand the sugars from the 5' end (letter, count) and the backbone: PS all phosphorothioate, else s phosphorothioate and o phosphodiester by linkage. Methylation of C is not given here. e = 2'-O-(2-methoxyethyl) (MOE); k = constrained ethyl (cEt); d = 2'-deoxy (DNA)
Criterion: target mRNA inhibition meeting or surpassing 30%. Met: criterion met. Not met: criterion not met.

>>> label("CTGAATTAGTCTCCAT (sugars k3 d10 k3, PS)")
"criterion met"
>>> label("AGGAGTCTTTATAGTA (sugars kkdddddddddkekek, PS)")
"criterion met"
>>> label("TCCATTTATGTGACTA (sugars kkddddddddkekekk, PS)")
"criterion not met"

Evaluate AAAGTTCACATAAAGG (sugars k3 d10 k3, PS) : target mRNA inhibition at minimum 30%?
criterion met

Evaluate TGTAAATATAGCCCCA (sugars k3 d10 k3, PS) : target mRNA inhibition at minimum 30%?
criterion met

Evaluate GCTATAATAATCCCCA (sugars k3 d10 k3, PS) : target mRNA inhibition at minimum 30%?
criterion met

###

- assay.system: APOL1
- recorded.conditions: ASO, A431, 0.0625 µM
After the bases stand the sugars from the 5' end (letter, count) and the backbone: PS all phosphorothioate, else s phosphorothioate and o phosphodiester by linkage. Methylation of C is not given here. e = 2'-O-(2-methoxyethyl) (MOE); k = constrained ethyl (cEt); d = 2'-deoxy (DNA)
Listed sequences paired with reported target mRNA inhibition
// units = %; emit number, no label

Sample records with target mRNA inhibition:
>>> experimental_result("AGCATCAAAAACCTGG (sugars k4 d9 k3, PS)")
66
>>> experimental_result("GAACGCAATGCTGACT (sugars kkddddekekeddddd, PS)")
40
>>> experimental_result("CAGTACAGAGCAGGAT (sugars k4 d9 k3, PS)")
59

API: the following record is the query input.
Entry CAGCATTGAGTACAAC (sugars k3 d10 k3, PS) , target mRNA inhibition reported as 38

###

- assay.system: APOL1
- recorded.conditions: ASO, A431, 0.0156 µM
After the bases stand the sugars from the 5' end (letter, count) and the backbone: PS all phosphorothioate, else s phosphorothioate and o phosphodiester by linkage. Methylation of C is not given here. e = 2'-O-(2-methoxyethyl) (MOE); k = constrained ethyl (cEt); d = 2'-deoxy (DNA)
metric: target mRNA inhibition (%)
// units = %; emit number, no label

Sample records with target mRNA inhibition:
>>> experimental_result("GAACGCAATGCTGACT (sugars kkddddekekeddddd, PS)")
19
>>> experimental_result("GTTATGAAATTATTGG (sugars kekddddeekkddddd, PS)")
14
>>> experimental_result("ATTCTCATGGTACAGG (sugars k4 d9 k3, PS)")
24
>>> experimental_result("CTTTATACCAGTGTCT (sugars kkddddekekeddddd, PS)")
29

Given the sequence ATTTCTTGATGTGGTG (sugars kdddddkekekddddd, PS) and test system APOL1, the measured target mRNA inhibition is 22

Given the sequence GGAATTATGGAATTGC (sugars kkddddekekeddddd, PS) and test system APOL1, the measured target mRNA inhibition is 23

Given the sequence GCTAATTTTCTGACTG (sugars kkdddddkekeddddd, PS) and test system APOL1, the measured target mRNA inhibition is 11

Given the sequence GGTTCAAAAGCAGCAT (sugars k2 d4 e3 k2 d5, PS) and test system APOL1, the measured target mRNA inhibition is 21

Given the sequence CGTCAATATATTCTTT (sugars kkkddddkekeddddd, PS) and test system APOL1, the measured target mRNA inhibition is 35

###

- assay.system: IRF5
- recorded.conditions: ASO, KARPAS-229, 1.33333 µM
After the bases stand the sugars from the 5' end (letter, count) and the backbone: PS all phosphorothioate, else s phosphorothioate and o phosphodiester by linkage. Methylation of C is not given here. e = 2'-O-(2-methoxyethyl) (MOE); k = constrained ethyl (cEt); d = 2'-deoxy (DNA)
metric: target mRNA inhibition (%)
// units = %; emit number, no label

Sample records with target mRNA inhibition:
>>> experimental_result("ACCACTGTGTACCCCA (sugars kekdddddddddeekk, PS)")
45
>>> experimental_result("ACCACTGTGTACCCCA (sugars k3 d10 k3, PS)")
41
>>> experimental_result("GGTTCTTGGACTCTCA (sugars kekdddddddddeekk, PS)")
44
>>> experimental_result("GTCTTGACCTCCCGCT (sugars kkddddddddddkeke, PS)")
47

API: the following record is the query input.
Entry ACGAGTTATGGGAAGG (sugars k3 d10 k3, PS) , target mRNA inhibition reported as 54

###

Listed sequences paired with reported target mRNA inhibition
- assay.system: DGAT2
- recorded.conditions: ASO, HepG2, 2.5 µM
After the bases stand the sugars from the 5' end (letter, count) and the backbone: PS all phosphorothioate, else s phosphorothioate and o phosphodiester by linkage. Methylation of C is not given here. e = 2'-O-(2-methoxyethyl) (MOE); d = 2'-deoxy (DNA)
// units = %; emit number, no label

Entry GTAGACTCTCCATGAGCCTA (sugars e5 d10 e5, PS) , target mRNA inhibition reported as 49

Entry GCAGTCTGCCTGATTCCCTT (sugars e5 d10 e5, PS) , target mRNA inhibition reported as 60
